Reference source for all entries: patent US20190247353A1

tested on: HL110PA3 strain (RT6); experiment: MIC by broth microdilution method, HL110PA3 strain; format: cell-based, Propionibacterium acnes; conditions: Cutibacterium acnes; pH 7.0; read-out: MIC against acne bacterium strain HL110PA3 strain (RT6)
endpointLabel: MIC (µg/mL)

// solved cases for MIC follow
CCCCCCCCCCCCCCC(=O)O [Pentadecanoic acid (C15:0), Pentadecanoic acid] :: 1000
CCCCCCCCCCCCCCCC(=O)O [Palmitic acid (C16:0), Palmitic acid] :: 1000
CCCCCCCCCCCCCCCCC(=O)O [Heptadecanoic acid (C17:0), Heptadecanoic acid] :: 1000

[a] CCCCCCCCCCCCCCCCCC(=O)O [Stearic acid (C18:0), Stearic acid]
[b] CCCCCCCCCCCCCC(=O)O [Myristic acid (C14:0), Myristic acid]
Between the entries labelled a and b , which has a larger MIC value on record? # reply format: chosen label a
(a: 1000 µg/mL, b: 500 µg/mL)

----------
System: HL043PA1 strain (RT5)
Experiment: MIC by broth microdilution method, HL043PA1 strain
Format: cell-based, Propionibacterium acnes
Details: Cutibacterium acnes; control antibiotics, Comparative Example 2, method as Example 1; read-out: MIC against acne bacterium strain HL043PA1 strain (RT5)
Procedure: An MIC is measured herein according to the broth microdilution method which is the standard method of Japanese Society of Chemotherapy. The antibacterial activity of a test substance was determined based on the minimum inhibitory concentration (MIC). An MIC was measured according to the broth microdilution method which is the standard method of Japanese Society of Chemotherapy. […]
endpointLabel: MIC (µg/mL)

Some entries whose results are on file:
CC1CCc2c(N3CCC(O)CC3)c(F)cc3c(=O)c(C(=O)O)cn1c23 (centres unmarked) [Nadifloxacin, reference compound] :: 0.031
CCC[C@@H]1C[C@@H](C(=O)N[C@@H]([C@H]2O[C@H](SC)[C@H](O)[C@@H](O)[C@H]2O)[C@H](C)Cl)N(C)C1 [Clindamycin, reference compound] :: 63
CC[C@H]1OC(=O)[C@H](C)[C@@H](O[C@H]2C[C@@](C)(OC)[C@@H](O)[C@H](C)O2)[C@H](C)[C@@H](O[C@@H]2O[C@H](C)C[C@H](N(C)C)[C@H]2O)[C@](C)(O)C[C@@H](C)/C(=N\OCOCCOC)[C@H](C)[C@@H](O)[C@]1(C)O [Roxithromycin, reference compound] :: 1000

[P] C[C@H]1c2cccc(O)c2C(=O)C2=C(O)[C@]3(O)C(=O)C(C(N)=O)=C(O)[C@@H](N(C)C)[C@@H]3[C@@H](O)[C@@H]21 [Doxycycline, reference compound]
[Q] CN(C)c1ccc(O)c2c1C[C@H]1C[C@H]3[C@H](N(C)C)C(O)=C(C(N)=O)C(=O)[C@@]3(O)C(O)=C1C2=O [Minocycline, reference compound]
Could you please tell me which of these two has the higher MIC: P or Q ? Reply with the label of the item you choose. P
(P: 2 µg/mL, Q: 0.49 µg/mL)

----------
Tested on: HL053PA1 strain (RT4) and HL043PA1 strain (RT5) versus HL110PA3 strain (RT6)
Assay: Strain-selective antibacterial activity (average of MICRT6/MICRT4 and MICRT6/MICRT5)
Assay type: cell-based, Propionibacterium acnes
Settings: pH 5.5
Description: Herein, “acne strain-selective antibacterial activity” or “strain-selective antibacterial activity” means an index indicating better inhibition of growth of a dominant strain in acne patients compared to that of a dominant strain in healthy subjects. […] The strain-selective antibacterial activity of each test substance (Table 2, right-most column) was evaluated based on the following rating criteria (Table 3). […]
Reported Strain-selective antibacterial activity values follow for various molecules

Fill blank: measured Strain-selective antibacterial activity of the molecule CCCCCCCCCCCCCCCCC(=O)O is ____. >64

I would be grateful if you could share the reported Strain-selective antibacterial activity for CCCCCCCCCCCCCCCC(=O)O . >16

For the molecule CCCCCCCCCCCCCCC(=O)O , what Strain-selective antibacterial activity is on record? >260

Can you look up the measured Strain-selective antibacterial activity of CCCCCCCCCCCCCC(=O)O for me? >64

----------
test system: HL110PA3 strain (RT6); experiment: MIC by broth microdilution method, HL110PA3 strain; format: cell-based, Propionibacterium acnes; conditions: Cutibacterium acnes, 48 h; pH 6.0 modified GAM broth, anaerobic, 37° C., 2 days (Example 1); read-out: MIC against acne bacterium strain HL110PA3 strain (RT6)
endpointLabel: MIC (µg/mL)

CCCCCCCCCCCCC(=O)O [Tridecanoic acid (C13:0), Tridecanoic acid, reference compound] :: 15.6
CCCCCCCCCC(=O)O [Capric acid (C10:0), Capric acid, reference compound] :: 250

[P] CCCCCCCCCCC(=O)O [Undecanoic acid (C11:0), Undecanoic acid, reference compound]
[Q] CCCCCCCCCCCCCC(=O)O [Myristic acid (C14:0), Myristic acid]
Returns the identifier with the smallest measured MIC among P and Q . Mark your selection by writing its label. P
(P: 15.6 µg/mL, Q: 250 µg/mL)

[1] CCCCCCCC(=O)O [Caprylic acid (C8:0), Caprylic acid, reference compound]
[2] CCCCCC/C=C\CCCCCCCC(=O)O [Palmitoleic acid (C16:1), Palmitoleic acid, reference compound]
Between 1 and 2 , whose recorded MIC is greater? Could you answer with the label of the item you picked? 1
(1: 125 µg/mL, 2: 15.6 µg/mL)
